Data origin, for the record: patent US10730913B1

Tested on: Human red blood cells (hRBCs)
Test: Hemolysis assay using whole human blood
Type: cell-based
Conditions: 50 μM; hRBCs, 15 min at 37° C.; relative to 1.0% triton X-100
Numbered stars: 1 amine (or outer) side, 2 acyl side, 3 side chain; on linkers, the order of the positions; unused ones are H or OH. Square brackets hold non-standard residues; d marks the D form. Peptide text beside a SMILES is read from it. X1 = NN([C@H](Cc1ccccc1)C(=O)[*:2])[*:1]; Orn(Nα-NH2) = NCCC[C@H](NN)C(=O)O; Orn = NCCC[C@H](N)C(=O)O

# MOLECULE, Hemolytic Activity (% Hemolysis)
records = [
    ("CC(C)C[C@@H]1NC(=O)[C@H](CCCN)N(N)C(=O)[C@H](C(C)C)NC(=O)[C@@H]2CCCN2C(=O)[C@@H](Cc2ccccc2)N(N)C(=O)[C@H](CC(C)C)NC(=O)[C@H](CCCN)NC(=O)[C@H](C(C)C)NC(=O)[C@@H]2CCCN2C(=O)[C@@H](Cc2ccccc2)NC1=O [Compound 4] (HELM PEPTIDE1{L.[dF].P.V.[Orn].L.[NN([C@H](Cc1ccccc1)C(=O)[*:2])[*:1]].P.V.[NCCC[C@@H](C(=O)[*:2])N(N)[*:1]]}$PEPTIDE1,PEPTIDE1,1:R1-10:R2$$$V2.0)", "14.00%"),
    ("CC(C)C[C@@H]1NC(=O)[C@H](CCCN)N(N)C(=O)[C@H](C(C)C)NC(=O)[C@@H]2CCCN2C(=O)[C@@H](Cc2ccccc2)N(N)C(=O)[C@H](CC(C)C)NC(=O)[C@H](CCCN)N(N)C(=O)[C@H](C(C)C)NC(=O)[C@@H]2CCCN2C(=O)[C@@H](Cc2ccccc2)NC1=O [Compound 8] (cyclo(L[dF]PV[Orn(Nα-NH2)]L[X1]PV[Orn(Nα-NH2)]))", "15.07%"),
    ("CC(C)C[C@@H]1NC(=O)[C@H](CCCN)NC(=O)[C@H](C(C)C)NC(=O)[C@@H]2CCCN2C(=O)[C@@H](Cc2ccccc2)N(N)C(=O)[C@H](CC(C)C)NC(=O)[C@H](CCCN)NC(=O)[C@H](C(C)C)NC(=O)[C@@H]2CCCN2C(=O)[C@@H](Cc2ccccc2)NC1=O [Compound 1] (HELM PEPTIDE1{L.[dF].P.V.[Orn].L.[NN([C@H](Cc1ccccc1)C(=O)[*:2])[*:1]].P.V.[Orn]}$PEPTIDE1,PEPTIDE1,1:R1-10:R2$$$V2.0)", "0.00%"),
    ("CC(C)C[C@@H]1NC(=O)[C@H](CCCN)N(N)C(=O)[C@H](C(C)C)NC(=O)[C@@H]2CCCN2C(=O)[C@@H](Cc2ccccc2)N(N)C(=O)[C@H](CC(C)C)NC(=O)[C@H](CCCN)N(N)C(=O)[C@H](C(C)C)NC(=O)[C@@H]2CCCN2C(=O)[C@@H](Cc2ccccc2)N(N)C1=O [Compound 9] (cyclo(L[X1]PV[Orn(Nα-NH2)]L[X1]PV[Orn(Nα-NH2)]))", "25.01%"),
    ("CC(C)C[C@@H]1NC(=O)[C@H](CCCN)NC(=O)[C@H](C(C)C)NC(=O)[C@@H]2CCCN2C(=O)[C@@H](Cc2ccccc2)NC(=O)[C@H](CC(C)C)NC(=O)[C@H](CCCN)N(N)C(=O)[C@H](C(C)C)NC(=O)[C@@H]2CCCN2C(=O)[C@@H](Cc2ccccc2)NC1=O [Compound 3] (HELM PEPTIDE1{L.[dF].P.V.[Orn].L.[dF].P.V.[NCCC[C@@H](C(=O)[*:2])N(N)[*:1]]}$PEPTIDE1,PEPTIDE1,1:R1-10:R2$$$V2.0)", "13.68%"),
    ("CC(C)C[C@@H]1NC(=O)[C@H](CCCN)NC(=O)[C@H](C(C)C)NC(=O)[C@@H]2CCCN2C(=O)[C@@H](Cc2ccccc2)N(N)C(=O)[C@H](CC(C)C)NC(=O)[C@H](CCCN)NC(=O)[C@H](C(C)C)NC(=O)[C@@H]2CCCN2C(=O)[C@@H](Cc2ccccc2)N(N)C1=O [Compound 2] (HELM PEPTIDE1{L.[NN([C@H](Cc1ccccc1)C(=O)[*:2])[*:1]].P.V.[Orn].L.[NN([C@H](Cc1ccccc1)C(=O)[*:2])[*:1]].P.V.[Orn]}$PEPTIDE1,PEPTIDE1,1:R1-10:R2$$$V2.0)", "11.24%"),
    ("CC(C)C[C@@H]1NC(=O)[C@H](CCCN)NC(=O)[C@H](C(C)C)NC(=O)[C@@H]2CCCN2C(=O)[C@@H](Cc2ccccc2)N(N)C(=O)[C@H](CC(C)C)NC(=O)[C@H](CCCN)N(N)C(=O)[C@H](C(C)C)NC(=O)[C@@H]2CCCN2C(=O)[C@@H](Cc2ccccc2)N(N)C1=O [Compound 5] (cyclo(L[X1]PV[Orn]L[X1]PV[Orn(Nα-NH2)]))", "17.93%"),
    ("CC(C)C[C@@H]1NC(=O)[C@H](CCCN)NC(=O)[C@H](C(C)C)NC(=O)[C@@H]2CCCN2C(=O)[C@@H](Cc2ccccc2)N(N)C(=O)[C@H](CC(C)C)NC(=O)[C@H](CCCN)N(N)C(=O)[C@H](C(C)C)NC(=O)[C@@H]2CCCN2C(=O)[C@@H](Cc2ccccc2)NC1=O [Compound 6] (HELM PEPTIDE1{L.[dF].P.V.[NCCC[C@@H](C(=O)[*:2])N(N)[*:1]].L.[NN([C@H](Cc1ccccc1)C(=O)[*:2])[*:1]].P.V.[Orn]}$PEPTIDE1,PEPTIDE1,1:R1-10:R2$$$V2.0)", "17.91%"),
]
